study.target: human Protein Tyrosine Phosphatase Non-receptor Type 9 (PTPN9), PTPN9 (gene 5780) (UniProt P43378)
Sequence (P43378 whole entry, looked up): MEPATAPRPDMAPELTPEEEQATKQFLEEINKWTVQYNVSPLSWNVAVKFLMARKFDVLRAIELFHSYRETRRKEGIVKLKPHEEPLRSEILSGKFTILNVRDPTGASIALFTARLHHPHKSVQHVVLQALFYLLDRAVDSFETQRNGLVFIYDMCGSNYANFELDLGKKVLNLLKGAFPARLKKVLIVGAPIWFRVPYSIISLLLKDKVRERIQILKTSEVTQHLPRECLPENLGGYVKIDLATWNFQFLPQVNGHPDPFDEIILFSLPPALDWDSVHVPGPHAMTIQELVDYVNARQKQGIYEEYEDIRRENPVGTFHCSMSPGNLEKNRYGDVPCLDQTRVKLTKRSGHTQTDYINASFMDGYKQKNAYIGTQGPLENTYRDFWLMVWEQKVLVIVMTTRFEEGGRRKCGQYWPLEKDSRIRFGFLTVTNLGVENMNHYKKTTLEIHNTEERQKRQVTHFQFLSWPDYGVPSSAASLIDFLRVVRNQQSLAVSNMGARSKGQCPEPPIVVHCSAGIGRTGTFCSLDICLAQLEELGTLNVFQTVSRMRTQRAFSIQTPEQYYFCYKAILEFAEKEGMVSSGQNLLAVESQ
protocol.details: NVS_ENZ_hPTPN9: NovaScreen (NVS) Enzymatic Assay for human Protein Tyrosine Phosphatase Non-receptor Type 9 (PTPN9) (AID 2283209)
Results filed as inconclusive are left out. The source made the active and inactive calls. Rule for the calls: active = hit-call score of the fitted dose curve at least 0.9, where 1 is the maximum; inconclusive = response in the unintended direction; inactive = score below 0.9.
A correct response names exactly one class from class 1 = active, class 0 = inactive

O=C(O)C1(C(=O)Nc2ccc(Cl)cc2Cl)CC1; class 1
COc1nc(C)nc(NC(=O)NS(=O)(=O)c2ccccc2OCCCl)n1; class 0
CCCN(CCC)c1c([N+](=O)[O-])cc(C(F)(F)F)c(N)c1[N+](=O)[O-]; class 1

Shifting focus to the compound that follows.
Exercise: In this assay, the call recorded for CC(C)CCCCCCc1ccc(O)cc1 was what?
Key: class 0

====

protocol.details: Tanguay_ZF_120hpf_EYE_legacy: (Legacy) Oregon State University Tanguay Lab 120 Hour Post-fertilization zebrafish Assay for Eye Malformation (AID 2283636);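 note: binary presence or absence of eye malformation scored by brightfield in 120 hpf larvae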
Inconclusive results are not listed. Active and inactive are the calls of the source. How the source made its calls: active means hit-call score of the fitted dose curve at least 0.9, where 1 is the maximum; inconclusive means response in the unintended direction; inactive means score below 0.9.
A correct response names exactly one class from active, inactive

Take a look at these entries with their results.
CCCCOCCOCCOCc1cc2c(cc1CCC)OCO2; inactive
N[C@@H](Cc1cc(I)c(Oc2ccc(O)c(I)c2)c(I)c1)C(=O)O; active
CCCOC(=O)c1ccc(C(=O)OCCC)nc1; inactive

Shifting focus to the molecule that follows.
Exercise: In this assay, the call recorded for CC(=O)[C@H]1CC[C@H]2[C@@H]3CCC4=CC(=O)CC[C@]4(C)[C@H]3CC[C@]12C was what?
Key: inactive

====

Read-out: glucuronosyltransferase (UGT1A1), UGT1A1 (gene 54658)
protocol.details: CLD_UGT1A1_48hr: CellzDirect (CLD) Gene Expression Assay for glucuronosyltransferase (UGT1A1) at 48 hours (AID 2283709);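 note: actives increase expression relative to DMSO so potency refers to induction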
Results filed as inconclusive are left out. Activity calls are given as the source filed them. The calls were made as follows: active = hit-call score of the fitted dose curve at least 0.9, where 1 is the maximum; inconclusive = response in the unintended direction; inactive = score below 0.9.
A correct response names exactly one class from active, inactive

Take a look at these entries with their results.
CC1(C)C(C=C(Cl)Cl)C1C(=O)OCc1cccc(Oc2ccccc2)c1 (stereo unspecified); active
COC(=O)CSc1cc(N=c2sc(=O)n3n2CCCC3)c(F)cc1Cl; active
COC(=O)c1ccccc1C(=O)O; inactive
C=CCOC(Cn1ccnc1)c1ccc(Cl)cc1Cl (stereo unspecified); inactive
Oc1ccc(C(c2ccc(O)cc2)C(Cl)(Cl)Cl)cc1; inactive

Exercise: In this assay, the call recorded for CC(C)(c1ccc(O)cc1)c1ccc(O)cc1 was what?
Key: inactive

====

protocol.details: Tanguay_ZF_120hpf_JAW_legacy: (Legacy) Oregon State University Tanguay Lab 120 Hour Post-fertilization zebrafish Assay for Jaw Malformation (AID 2283638)
Inconclusive results are not listed. Calls of active or inactive are those of the source. The calls were made as follows: active = hit-call score of the fitted dose curve at least 0.9, where 1 is the maximum; inconclusive = response in the unintended direction; inactive = score below 0.9.
A correct response names exactly one class from active, inactive

Take a look at these entries with their results.
S=C(S)NCCNC(=S)S.[Mn+2].[S-]C([S-])=NCCN=C([S-])[S-].[Zn+2]; inactive
S=C([S-])NCCNC(=S)[S-].[Mn+2]; inactive
CCOC(=O)NCCOc1ccc(Oc2ccccc2)cc1; inactive
CCCCOC(=O)C(C)Oc1ccc(Oc2ccc(C(F)(F)F)cn2)cc1 (configuration not stated); inactive
O=C(O)c1ccccc1; inactive
C[C@]12CC[C@@H]3c4ccc(O)cc4C[C@@H](CCCCCCCCCS(=O)CCCC(F)(F)C(F)(F)F)[C@H]3[C@@H]1CC[C@@H]2O (some centres not stated); inactive
CCCCC(CC)CN1C(=O)C2C3C=CC(C3)C2C1=O (configuration not stated); inactive
COC(=O)c1ccccc1C(=O)O; inactive
CCCN(CCC)C(=O)SCC; inactive
N[C@@H](Cc1cc(I)c(Oc2ccc(O)c(I)c2)c(I)c1)C(=O)O; active

Exercise: In this assay, the call recorded for OB(O)O was what?
Key: inactive

Exercise: In this assay, the call recorded for Cc1nn(C)c(Oc2ccccc2)c1C=NOCc1ccc(C(=O)OC(C)(C)C)cc1 was what?
Key: inactive
